# Tested on: TT cell (RET C634W)
# ASSAY INFO: Cell proliferation assay (CellTiter-Glo, 72 hours)
# Format: cell-based
# APPLIED CONDITIONS: Homo sapiens, anti-cell proliferation
PARAMETER: IC50 (nM)
Form entry: value (nM) — number only.

Qu. Would you mind telling me what IC50 value was observed for C[C@H]1CNC(=O)c2cnn3cc4c(nc23)N(Cc2cc(F)cc(F)c2O1)[C@@H]1CCC[C@@H]1O4 [Compound 3] ?
Ans. 7.9

Qu. Recorded IC50 for C[C@H]1CNC(=O)c2cnn3cc4c(nc23)N(Cc2cc(F)cnc2O1)[C@@H]1CCC[C@@H]1O4 [Compound 5] , please?
Ans. 0.9

Qu. May I ask what IC50 has been recorded for C[C@H]1CNC(=O)c2cnn3cc4c(nc23)N(Cc2cc(F)ccc2O1)[C@@H]1CCC[C@H]1O4 [Compound 2] ?
Ans. 1780

Qu. Record request: IC50 value, item C[C@H]1CNC(=O)c2cnn3cc4c(nc23)N(Cc2cc(F)ccc2O1)[C@@H]1COC[C@@H]1O4 [Compound 4]
Ans. 462

###

So I've got a bunch of compounds here, and I need their IC50 values.
# System: KM12 cell (TPM3-TRKA)
# ASSAY INFO: Cell proliferation assay (CellTiter-Glo, 72 hours)
# Format: cell-based, human
# APPLIED CONDITIONS: Homo sapiens, KM12, anti-cell proliferation
Answer in nM, number only, no unit symbol.

Qu. What does the data say about its IC50? Entry: C[C@@H]1COc2ncc(F)cc2CN2c3nc4c(cnn4cc3O[C@H]3CCCC[C@H]32)C(=O)N1 [Compound 13]
Ans. 28.4

Qu. If you can, please state the reported IC50 value of O=C1N[C@@H]2CC[C@@H](C2)Oc2ncc(F)cc2CN2c3nc4c1cnn4cc3O[C@H]1CCC[C@H]12 [Compound 42] .
Ans. 9.8

Qu. What value of measured IC50 is listed for O=C1NC2(CCC2)CCOc2ncc(F)cc2CN2c3nc4c1cnn4cc3O[C@H]1CCC[C@H]12 [Compound 45] ?
Ans. 202

Qu. Looking for the measured IC50 of O=C1NC[C@@H](F)COc2ncc(F)cc2CN2c3nc4c1cnn4cc3O[C@H]1CCC[C@H]12 [Compound 39] , can you help?
Ans. 7.4

Qu. Fill in the blank: the reported IC50 of CC(=O)N1C[C@@H]2Oc3cn4ncc5c4nc3N(Cc3cc(F)cnc3O[C@@H](C)CNC5=O)[C@@H]2C1 [Compound 36] is ____.
Ans. 1000

Qu. Would you mind telling me what IC50 value was observed for CC1(C)CNC(=O)c2cnn3cc4c(nc23)N(Cc2cc(F)cnc2OC1)[C@@H]1CCC[C@@H]1O4 [Compound 27] ?
Ans. 0.3

Qu. // lookup IC50 for C[C@H]1CNC(=O)c2cnn3cc4c(nc23)N(Cc2cc(F)ccc2O1)[C@@H]1CCC[C@@H]1O4 [Compound 1]
Ans. 3

Qu. Give its IC50 value. Item: C[C@H]1CNC(=O)c2cnn3cc4c(nc23)N(Cc2cc(F)cnc2O1)[C@@H]1COC[C@@H]1O4 [Compound 30]
Ans. 13.5

Qu. # query: IC50 of entry C[C@@H]1COc2ncc(F)cc2CN2c3nc4c(cnn4cc3O[C@H]3CCC[C@H]32)C(=O)N1 [Compound 6]
Ans. 0.2

Qu. Quick one: IC50 of C[C@@H]1COc2ncc(F)cc2CN2c3nc4c(cnn4cc3O[C@H]3CC[C@H]32)C(=O)N1 [Compound 10] ?
Ans. 0.2

Qu. Recorded IC50 of O=C1N[C@H](C2CC2)COc2ncc(F)cc2CN2c3nc4c1cnn4cc3O[C@H]1CCC[C@H]12 [Compound 14] , please.
Ans. 26.6

Qu. Returns the measured IC50 for the input compound. Input: C[C@H]1CNC(=O)c2cnn3cc4c(nc23)N(Cc2cc(F)ccc2O1)[C@@H]1COC[C@@H]1O4 [Compound 4]
Ans. 22

Qu. Dear colleague, I am looking for the recorded IC50 of the following compound: O=C1NC2(COc3ncc(F)cc3CN3c4nc5c1cnn5cc4O[C@H]1CCC[C@H]13)CC(F)(F)C2 [Compound 25]
Ans. 277

###

Can you tell me log10 of GI50 for the items I'm about to list?
# TARGET SYSTEM: BaF3 KIF5B-RET_V804M (Homo sapiens, UniProt P07949, V804M, cells depend on it)
# Construct: fused on or other part: P33176 (Kinesin-1 heavy chain)
# Sequence (P07949 whole entry V804M, the tested form may be a part): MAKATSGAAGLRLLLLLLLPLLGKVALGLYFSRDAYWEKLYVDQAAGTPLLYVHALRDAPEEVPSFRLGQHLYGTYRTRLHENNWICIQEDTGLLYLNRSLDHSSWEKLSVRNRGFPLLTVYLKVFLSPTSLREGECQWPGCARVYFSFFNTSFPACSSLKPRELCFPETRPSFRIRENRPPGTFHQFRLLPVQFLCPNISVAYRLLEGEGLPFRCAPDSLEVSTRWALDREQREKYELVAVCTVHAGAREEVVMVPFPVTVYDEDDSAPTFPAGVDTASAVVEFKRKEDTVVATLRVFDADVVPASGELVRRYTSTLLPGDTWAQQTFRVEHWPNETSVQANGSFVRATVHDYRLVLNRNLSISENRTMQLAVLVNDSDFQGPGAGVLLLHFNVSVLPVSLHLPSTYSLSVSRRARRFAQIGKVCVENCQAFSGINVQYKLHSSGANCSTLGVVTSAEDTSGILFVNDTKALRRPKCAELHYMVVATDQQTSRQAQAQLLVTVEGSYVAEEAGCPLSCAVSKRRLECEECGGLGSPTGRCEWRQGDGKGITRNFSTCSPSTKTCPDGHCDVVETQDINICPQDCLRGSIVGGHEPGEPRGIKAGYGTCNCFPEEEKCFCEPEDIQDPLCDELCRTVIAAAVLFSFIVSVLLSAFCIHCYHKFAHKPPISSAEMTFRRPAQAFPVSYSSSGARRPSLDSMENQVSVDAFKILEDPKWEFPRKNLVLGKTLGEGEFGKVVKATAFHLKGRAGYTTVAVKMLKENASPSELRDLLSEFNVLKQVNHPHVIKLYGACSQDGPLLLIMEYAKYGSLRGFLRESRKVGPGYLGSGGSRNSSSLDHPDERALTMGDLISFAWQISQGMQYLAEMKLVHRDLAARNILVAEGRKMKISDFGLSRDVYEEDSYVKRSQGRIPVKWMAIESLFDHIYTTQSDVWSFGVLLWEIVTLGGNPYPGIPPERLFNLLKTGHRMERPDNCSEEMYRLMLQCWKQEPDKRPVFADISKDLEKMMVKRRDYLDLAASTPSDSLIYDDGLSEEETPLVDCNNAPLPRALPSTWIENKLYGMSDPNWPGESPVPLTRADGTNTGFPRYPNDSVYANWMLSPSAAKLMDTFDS
# ASSAY INFO: Cell proliferation assay (CellTiter-Glo, 72 hours)
# Format: cell-based
# APPLIED CONDITIONS: anti-cell proliferation, read-out: BaF3 KIF5B-RET_V804M IC50
Recall that a logarithmic scale is used here: each number is log10 of GI50 in nM.

Qu. // query log10 of GI50 value for entry O=C1NC[C@H](F)COc2ncc(F)cc2CN2c3nc4c1cnn4cc3O[C@H]1CCC[C@H]12
Ans. 2.54

Qu. Can you share its log10 of GI50? I mean this compound: O=C1NC2(CC2)COc2ncc(F)cc2CN2c3nc4c1cnn4cc3O[C@H]1CCC[C@H]12
Ans. 3.18

Qu. Sample O=C1NCC(F)(F)COc2ncc(F)cc2CN2c3nc4c1cnn4cc3O[C@H]1CCC[C@H]12 — what was its log10 of GI50?
Ans. 3.70

Qu. Data request, read-out log10 of GI50, for C[C@@H]1COc2c(F)cc(F)cc2CN2c3nc4c(cnn4cc3O[C@H]3CCC[C@H]32)C(=O)N1
Ans. 3.26

Qu. Param item = C[C@H]1CNC(=O)c2cnn3cc4c(nc23)N(Cc2cc(F)cnc2OC1)[C@@H]1CCC[C@@H]1O4 ; retrieve measured log10 of GI50.
Ans. 3.44

Qu. Consider the compound shown here: O=C1N[C@@H]2CCC[C@@H]2Oc2ncc(F)cc2CN2c3nc4c1cnn4cc3O[C@H]1CCC[C@H]12 What is its recorded log10 of GI50?
Ans. 3.09

###

# TARGET SYSTEM: RET (Y791F) (Homo sapiens, UniProt P07949, Y791F)
# Construct: purchased Reaction Biology Corporation (assay run at the CRO)
# Sequence (P07949 29-1114 Y791F): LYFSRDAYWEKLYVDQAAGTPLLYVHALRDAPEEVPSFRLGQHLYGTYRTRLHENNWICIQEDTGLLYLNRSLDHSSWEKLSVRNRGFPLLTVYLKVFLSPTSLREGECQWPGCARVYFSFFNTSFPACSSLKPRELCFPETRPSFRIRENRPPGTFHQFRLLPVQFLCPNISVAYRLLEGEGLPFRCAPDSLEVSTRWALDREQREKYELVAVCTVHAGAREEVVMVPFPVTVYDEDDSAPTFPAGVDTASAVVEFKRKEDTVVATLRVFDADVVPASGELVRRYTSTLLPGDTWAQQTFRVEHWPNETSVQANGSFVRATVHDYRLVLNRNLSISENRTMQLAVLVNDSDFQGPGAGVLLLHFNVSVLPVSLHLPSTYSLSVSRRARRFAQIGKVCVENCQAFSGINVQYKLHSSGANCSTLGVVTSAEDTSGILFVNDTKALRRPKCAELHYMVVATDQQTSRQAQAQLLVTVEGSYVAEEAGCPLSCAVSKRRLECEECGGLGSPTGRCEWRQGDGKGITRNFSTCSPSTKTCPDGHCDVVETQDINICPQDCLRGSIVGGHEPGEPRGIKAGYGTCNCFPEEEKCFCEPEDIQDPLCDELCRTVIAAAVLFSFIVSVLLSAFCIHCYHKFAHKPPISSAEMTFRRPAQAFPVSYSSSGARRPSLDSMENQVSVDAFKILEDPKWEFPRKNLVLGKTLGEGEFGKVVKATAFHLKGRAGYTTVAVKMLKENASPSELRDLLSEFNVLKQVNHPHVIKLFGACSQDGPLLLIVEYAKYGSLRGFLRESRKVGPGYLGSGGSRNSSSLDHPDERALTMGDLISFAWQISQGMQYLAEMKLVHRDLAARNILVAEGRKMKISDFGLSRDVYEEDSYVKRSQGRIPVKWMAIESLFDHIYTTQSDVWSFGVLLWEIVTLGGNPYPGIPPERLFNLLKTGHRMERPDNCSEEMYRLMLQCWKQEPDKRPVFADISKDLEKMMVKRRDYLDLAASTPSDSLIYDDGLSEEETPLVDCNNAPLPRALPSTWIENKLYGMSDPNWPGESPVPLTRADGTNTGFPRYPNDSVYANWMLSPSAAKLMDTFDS
# ASSAY INFO: Biochemical kinase assay (Reaction Biology, 33P ATP)
# APPLIED CONDITIONS: 10 μM ATP
PARAMETER: IC50 (nM)
Give the value in nM but do not write nM after it.

Qu. Enter reported IC50 observed with RET (Y791F) (Homo sapiens, UniProt P07949, Y791F) for C[C@H]1CNC(=O)c2cnn3cc4c(nc23)N(Cc2cc(F)cnc2O1)[C@@H]1CCC[C@@H]1O4 [Compound 5]
Ans. 7.95

###

# TARGET SYSTEM: RET (L790F) (Homo sapiens, UniProt P07949, L790F)
# Construct: purchased Reaction Biology Corporation (assay run at the CRO)
# Sequence (P07949 29-1114 L790F): as the sequence (P07949 29-1114 Y791F) above, with L762F, F763Y counted along it
# ASSAY INFO: Biochemical kinase assay (Reaction Biology, 33P ATP)
# APPLIED CONDITIONS: 10 μM ATP
PARAMETER: IC50 (nM)
Write the value in nM as a bare number.

Qu. Entry C[C@H]1CNC(=O)c2cnn3cc4c(nc23)N(Cc2cc(F)cnc2O1)[C@@H]1CCC[C@@H]1O4 [Compound 5] : reported IC50 = ?
Ans. 1.31

Qu. Bench note: what IC50 did C[C@H]1CNC(=O)c2cnn3cc4c(nc23)N(Cc2cc(F)ccc2O1)[C@@H]1CCC[C@@H]1O4 [Compound 1] show?
Ans. 0.12

###

# TARGET SYSTEM: RET (E762Q) (Homo sapiens, UniProt P07949, E762Q)
# Construct: purchased Reaction Biology Corporation (assay run at the CRO)
# Sequence (P07949 29-1114 E762Q): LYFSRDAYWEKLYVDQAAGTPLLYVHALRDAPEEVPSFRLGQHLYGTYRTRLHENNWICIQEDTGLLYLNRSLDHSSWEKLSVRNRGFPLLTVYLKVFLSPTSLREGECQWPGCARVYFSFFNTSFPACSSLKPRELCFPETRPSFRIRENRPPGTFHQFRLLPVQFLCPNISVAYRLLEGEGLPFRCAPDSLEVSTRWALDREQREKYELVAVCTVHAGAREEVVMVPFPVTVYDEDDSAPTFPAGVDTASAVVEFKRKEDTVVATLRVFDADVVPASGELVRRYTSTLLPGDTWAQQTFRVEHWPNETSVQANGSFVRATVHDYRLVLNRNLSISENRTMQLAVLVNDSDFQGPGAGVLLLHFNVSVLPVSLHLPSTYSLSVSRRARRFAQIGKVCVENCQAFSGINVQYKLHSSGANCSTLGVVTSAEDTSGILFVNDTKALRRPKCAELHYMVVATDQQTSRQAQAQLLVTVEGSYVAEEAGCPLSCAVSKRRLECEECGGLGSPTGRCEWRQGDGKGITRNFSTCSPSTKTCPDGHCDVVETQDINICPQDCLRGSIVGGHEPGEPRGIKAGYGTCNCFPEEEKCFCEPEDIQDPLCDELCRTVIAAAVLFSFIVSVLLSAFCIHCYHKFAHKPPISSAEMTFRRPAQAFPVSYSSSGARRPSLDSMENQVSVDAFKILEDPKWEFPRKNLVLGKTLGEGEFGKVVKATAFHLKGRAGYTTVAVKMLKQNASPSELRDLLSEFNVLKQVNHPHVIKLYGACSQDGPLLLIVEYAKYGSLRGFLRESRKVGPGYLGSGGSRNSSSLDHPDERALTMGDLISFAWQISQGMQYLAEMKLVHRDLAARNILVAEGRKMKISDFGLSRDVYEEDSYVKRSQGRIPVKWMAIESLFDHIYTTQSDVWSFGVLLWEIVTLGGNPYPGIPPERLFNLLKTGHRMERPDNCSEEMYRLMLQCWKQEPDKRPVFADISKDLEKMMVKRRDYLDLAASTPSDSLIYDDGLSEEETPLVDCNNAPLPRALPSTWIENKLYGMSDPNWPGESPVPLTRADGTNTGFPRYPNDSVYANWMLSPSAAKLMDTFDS
# ASSAY INFO: Biochemical kinase assay (Reaction Biology, 33P ATP)
# APPLIED CONDITIONS: 10 μM ATP
PARAMETER: IC50 (nM)
Give your result in nM as a bare value.

Qu. # input compound: C[C@H]1CNC(=O)c2cnn3cc4c(nc23)N(Cc2cc(F)ccc2O1)[C@@H]1CCC[C@@H]1O4 ; wanted: its IC50
Ans. 2.07

Qu. Reported IC50 for C[C@H]1CNC(=O)c2cnn3cc4c(nc23)N(Cc2cc(F)cnc2O1)[C@@H]1CCC[C@@H]1O4 : what is it?
Ans. 0.58

###

# TARGET SYSTEM: RET (V804M) (Homo sapiens, UniProt P07949, V804M)
# Construct: purchased Reaction Biology Corporation (assay run at the CRO)
# Sequence (P07949 29-1114 V804M): as the sequence (P07949 29-1114 Y791F) above, with F763Y, V776M counted along it
# ASSAY INFO: Biochemical kinase assay (Reaction Biology, 33P ATP)
# APPLIED CONDITIONS: 10 μM ATP
PARAMETER: IC50 (nM)
Enter your answer as a number in nM; do not include the unit.

Qu. Any idea what its IC50 is? The compound is C[C@H]1CNC(=O)c2cnn3cc4c(nc23)N(Cc2cc(F)ccc2O1)[C@@H]1CCC[C@@H]1O4
Ans. 7.86

Qu. Requested read-out: IC50. Entry: C[C@H]1CNC(=O)c2cnn3cc4c(nc23)N(Cc2cc(F)cnc2O1)[C@@H]1CCC[C@@H]1O4
Ans. 18.8
